Assay: activity coefficient (dimensionless); of the first substance listed, at infinite dilution; xn = mol fraction of the nth substance listed
Conditions: 368.15 K; Liquid; Chromatography; x1 = 0
metricName: activity coefficient

Reference set (3 entries):
{"molecule": "C#CCCCCC [1-heptyne] + CCCCn1cc[n+](C)c1.N#CN=C=[N-]", "activity coefficient": 10.2}
{"molecule": "CC#N [acetonitrile] + CCCCn1cc[n+](C)c1.N#CN=C=[N-]", "activity coefficient": 0.934}
{"molecule": "C=CCCCCCC [oct-1-ene] + CCCCn1cc[n+](C)c1.N#CN=C=[N-]", "activity coefficient": 55.5}

1: CCCC=O [butanal] + CCCCn1cc[n+](C)c1.N#CN=C=[N-]
2: CC1CCCCC1 [methylcyclohexane] + CCCCn1cc[n+](C)c1.N#CN=C=[N-]
3: CC(C)(C)O [2-methylpropan-2-ol] + CCCCn1cc[n+](C)c1.N#CN=C=[N-]
4: CCCCCC [hexane] + CCCCn1cc[n+](C)c1.N#CN=C=[N-]
Exercise: // ranking: key=activity coefficient, reverse=True To answer, arrange all of the labels according to the requested order.
Key: 4, 2, 1, 3

P: C1CCOC1 [tetrahydrofuran] + CCCCn1cc[n+](C)c1.N#CN=C=[N-]
Q: CCCCCCC [heptane] + CCCCn1cc[n+](C)c1.N#CN=C=[N-]
Exercise: Just tell me: smaller activity coefficient value, P or Q ? Mark your selection by writing its label.
Key: P
(P: 1.93, Q: 75.3)

a: CCO [ethanol] + CCCCn1cc[n+](C)c1.N#CN=C=[N-]
b: CCCc1ccccc1 [propylbenzene] + CCCCn1cc[n+](C)c1.N#CN=C=[N-]
Exercise: a or b : whose activity coefficient is greater? Your answer should be the label attached to the chosen record.
Key: b
(b: 8.35, a: 0.694)

1: C=CCCCC [hex-1-ene] + CCCCn1cc[n+](C)c1.N#CN=C=[N-]
2: CCCC(=O)OC [methyl butanoate] + CCCCn1cc[n+](C)c1.N#CN=C=[N-]
Exercise: Parameter check: reported activity coefficient is higher for which label, 1 or 2 ? Mark your answer with the label of the selected entry.
Key: 1

* * *

Assay: activity coefficient (dimensionless); of the first substance listed, at infinite dilution; xn = mol fraction of the nth substance listed
Conditions: 338.15 K; Liquid; Chromatography; x1 = 0
metricName: activity coefficient

{"compound": "CCC(C)O (centres undefined) [butan-2-ol] + CCCCn1cc[n+](C)c1.N#CN=C=[N-]", "activity coefficient": 1.16}
{"compound": "CCO [ethanol] + CCCCn1cc[n+](C)c1.N#CN=C=[N-]", "activity coefficient": 0.669}
{"compound": "CC(C)c1ccccc1 [isopropylbenzene] + CCCCn1cc[n+](C)c1.N#CN=C=[N-]", "activity coefficient": 7.72}
{"compound": "c1ccccc1 [benzene] + CCCCn1cc[n+](C)c1.N#CN=C=[N-]", "activity coefficient": 2.03}
{"compound": "CCCC(C)=O [pentan-2-one] + CCCCn1cc[n+](C)c1.N#CN=C=[N-]", "activity coefficient": 2.22}

a: CCCC=O [butanal] + CCCCn1cc[n+](C)c1.N#CN=C=[N-]
b: C1CCCCC1 [cyclohexane] + CCCCn1cc[n+](C)c1.N#CN=C=[N-]
Exercise: Hey, between a and b which has a smaller measured activity coefficient? Write down the label attached to your selection.
Key: a

* * *

Experiment: activity coefficient (dimensionless); of the first substance listed, at infinite dilution; xn = mol fraction of the nth substance listed
Conditions: 338.15 K; Liquid; Chromatography; x1 = 0
metricName: activity coefficient

a: COC(C)(C)C [2-methoxy-2-methylpropane] + CCCCn1cc[n+](C)c1.N#CN=C=[N-]
b: CCOC(C)=O [ethyl acetate] + CCCCn1cc[n+](C)c1.N#CN=C=[N-]
c: CCCO [propan-1-ol] + CCCCn1cc[n+](C)c1.N#CN=C=[N-]
d: c1ccsc1 [thiophene] + CCCCn1cc[n+](C)c1.N#CN=C=[N-]
Exercise: Please rank the 4 items above; order by activity coefficient, the highest number leading. Form entry: ranked labels (order as requested).
Key: a, b, d, c
(a: 7.8, b: 2.79, d: 1.29, c: 0.844)

* * *

Test: activity coefficient (dimensionless); of the first substance listed, at infinite dilution; xn = mol fraction of the nth substance listed
Conditions: 318.15 K; Liquid; Chromatography; x1 = 0
metricName: activity coefficient

Completed entries (count: 6):
{"molecule": "CC(C)c1ccccc1 [isopropylbenzene] + CCCCn1cc[n+](C)c1.N#CN=C=[N-]", "activity coefficient": 7.3}
{"molecule": "CC(C)CO [2-methyl-1-propanol] + CCCCn1cc[n+](C)c1.N#CN=C=[N-]", "activity coefficient": 1.08}
{"molecule": "C1COCCO1 [1,4-dioxane] + CCCCn1cc[n+](C)c1.N#CN=C=[N-]", "activity coefficient": 1.06}
{"molecule": "C#CCCCCCC [1-octyne] + CCCCn1cc[n+](C)c1.N#CN=C=[N-]", "activity coefficient": 12.5}
{"molecule": "CC(C)CC(C)(C)C [2,2,4-trimethylpentane] + CCCCn1cc[n+](C)c1.N#CN=C=[N-]", "activity coefficient": 111}
{"molecule": "C#CCCCCC [1-heptyne] + CCCCn1cc[n+](C)c1.N#CN=C=[N-]", "activity coefficient": 8.24}

I: C=CCCCCC [1-heptene] + CCCCn1cc[n+](C)c1.N#CN=C=[N-]
II: CCO [ethanol] + CCCCn1cc[n+](C)c1.N#CN=C=[N-]
Exercise: Between item I and item II , which reported activity coefficient is smaller? Please reply using the label of the selected record.
Key: II

* * *

Assay: activity coefficient (dimensionless); of the first substance listed, at infinite dilution; xn = mol fraction of the nth substance listed
Conditions: 358.15 K; Liquid; Chromatography; x1 = 0
metricName: activity coefficient

{"molecule": "CCCCCCC [heptane] + CCCCn1cc[n+](C)c1.N#CN=C=[N-]", "metricName": "activity coefficient", "valueReported": 77.8}
{"molecule": "CCCCC [pentane] + CCCCn1cc[n+](C)c1.N#CN=C=[N-]", "metricName": "activity coefficient", "valueReported": 36.1}
{"molecule": "CCC(C)O (configuration not stated) [butan-2-ol] + CCCCn1cc[n+](C)c1.N#CN=C=[N-]", "metricName": "activity coefficient", "valueReported": 1.18}
{"molecule": "CCCCCC [hexane] + CCCCn1cc[n+](C)c1.N#CN=C=[N-]", "metricName": "activity coefficient", "valueReported": 53.4}
{"molecule": "CC(C)=O [acetone] + CCCCn1cc[n+](C)c1.N#CN=C=[N-]", "metricName": "activity coefficient", "valueReported": 1.22}
{"molecule": "c1ccncc1 [pyridine] + CCCCn1cc[n+](C)c1.N#CN=C=[N-]", "metricName": "activity coefficient", "valueReported": 1.03}

I: C#CCCCCCC [1-octyne] + CCCCn1cc[n+](C)c1.N#CN=C=[N-]
II: C=CCCCC [hex-1-ene] + CCCCn1cc[n+](C)c1.N#CN=C=[N-]
III: CCCc1ccccc1 [propylbenzene] + CCCCn1cc[n+](C)c1.N#CN=C=[N-]
IV: CCCC(C)=O [pentan-2-one] + CCCCn1cc[n+](C)c1.N#CN=C=[N-]
Exercise: Highest activity coefficient first, then in falling order down to the smallest. Give the labels in the order specified.
Key: II, I, III, IV
(II: 24.7, I: 14.4, III: 8.15, IV: 2.43)

A: C1CCCCCC1 [cycloheptane] + CCCCn1cc[n+](C)c1.N#CN=C=[N-]
B: COC(C)(C)C [2-methoxy-2-methylpropane] + CCCCn1cc[n+](C)c1.N#CN=C=[N-]
Exercise: Hi! Which is lower in terms of activity coefficient, the first one A or the second one B ? Record your answer as the label of the chosen record.
Key: B
(B: 8.46, A: 28.1)

* * *

Assay: activity coefficient (dimensionless); of the first substance listed, at infinite dilution; xn = mol fraction of the nth substance listed
Settings: 348.15 K; Liquid; Chromatography; x1 = 0
metricName: activity coefficient

Some solved cases for reference:
{"compound": "CCCOCCC [dipropyl ether] + CCCCn1cc[n+](C)c1.N#CN=C=[N-]", "metricName": "activity coefficient", "valueReported": 20.5}
{"compound": "CCCCCCCC [octane] + CCCCn1cc[n+](C)c1.N#CN=C=[N-]", "metricName": "activity coefficient", "valueReported": 116}
{"compound": "Cc1ccc(C)cc1 [1,4-dimethylbenzene] + CCCCn1cc[n+](C)c1.N#CN=C=[N-]", "metricName": "activity coefficient", "valueReported": 5}
{"compound": "C1CCOC1 [tetrahydrofuran] + CCCCn1cc[n+](C)c1.N#CN=C=[N-]", "metricName": "activity coefficient", "valueReported": 1.78}

a: CC#N [acetonitrile] + CCCCn1cc[n+](C)c1.N#CN=C=[N-]
b: C#CCCCCC [1-heptyne] + CCCCn1cc[n+](C)c1.N#CN=C=[N-]
c: CCCC(C)=O [pentan-2-one] + CCCCn1cc[n+](C)c1.N#CN=C=[N-]
d: CC(C)CC(C)(C)C [2,2,4-trimethylpentane] + CCCCn1cc[n+](C)c1.N#CN=C=[N-]
e: C1CCCC1 [cyclopentane] + CCCCn1cc[n+](C)c1.N#CN=C=[N-]
Exercise: Sequence the entries by activity coefficient, beginning with the highest number. # the answer lists labels in the order requested
Key: d, e, b, c, a
